experiment: chemical genetic growth profiling, strain panel (AID 1159580);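 also: tested at 20 µM; growth read once vehicle control cultures reached saturation at 30 °C; 1 = growth at the plate median or of vehicle wells; lower values mean less growth of the strain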; settings: S. cerevisiae deletion strains, growth OD, locus YKL193C, strain SDS22
About 2,000 (36%) of roughly 5,500 compounds were called active. Not shown: some 18% with an inconclusive outcome. Rule as the data show it: active = normalized growth mostly below about 0.91 (no sharp cut-off); inconclusive = no clear call, values can overlap the other calls; inactive = mostly above about 0.92. This is one part of the list.
Could you please pick one outcome from this set? t for active, f for inactive

[[record]]
compound = "N/C(=N/OC(=O)Nc1cccc(C(F)(F)F)c1)c1ccc(OC(F)(F)F)cc1"
category = "f"

[[record]]
compound = "CCCCCCCCCCCCSc1ncn[nH]1"
category = "f"

[[record]]
compound = "FC(F)(F)Oc1ccc(OCc2n[nH]c(=S)n2-c2ccc(Cl)cc2)cc1"
category = "f"

[[record]]
compound = "COc1ccc(Br)c(C(=O)/C(C#N)=C/c2cccs2)c1"
category = "t"

[[record]]
compound = "O=C1Nc2ccccc2/C1=C\\c1cccc2ccccc12"
category = "f"


Identify the outcome logged in this assay for the compound shown: FC(F)(F)Sc1ccc(OCc2n[nH]c(=S)n2-c2ccccc2)cc1 f

Try O=C(Nc1ccccc1C(=O)O)OCC1c2ccccc2-c2ccccc21 next. f

Try Cc1ccc(OS(=O)(=O)c2c(Cl)sc(Cl)c2Br)c([N+](=O)[O-])n1 next. f

Try O=C(OCc1ccccc1Br)c1cc([N+](=O)[O-])cc([N+](=O)[O-])c1 next. f

Try CCn1nc(C)cc1C(=O)Sc1cccc(Br)c1 next. f

Try OC(COCc1ccccc1)Cn1c2ccccc2c2ccccc21 (configuration not stated) next. f

Try O=S(=O)(Nc1ccccc1Sc1c(Cl)cncc1Cl)c1ccc(Cl)cc1 next. f

====

assay: chemical genetic growth profiling, strain panel (AID 1159580); conditions: S. cerevisiae deletion strains, growth OD, locus YHR079C, strain IRE1 (second series)
Out of some 5,500 compounds screened, about 2,000 (36%) were called active. Roughly 18% stayed inconclusive and do not appear here. Rule as the data show it: active = normalized growth mostly below about 0.91 (no sharp cut-off); inconclusive = no clear call, values can overlap the other calls; inactive = mostly above about 0.92. The list shows a part of the results.
Could you please pick one outcome from this set? true for active, false for inactive

[[record]]
compound = "C/C=C/CC(C)C(O)C1C(=O)NC(CC)C(=O)N(C)CC(=O)N(C)C(CC(C)C)C(=O)NC(C(C)C)C(=O)N(C)C(CC(C)C)C(=O)NC(C)C(=O)NC(C)C(=O)N(C)C(CC(C)C)C(=O)N(C)C(CC(C)C)C(=O)N(C)C(C(C)C)C(=O)N1C (stereo not drawn)"
category = "false"

[[record]]
compound = "COc1cccc2c1CCC1=CC(=O)CC[C@@]12C"
category = "false"

[[record]]
compound = "NC(=O)c1ccc([N+](=O)[O-])cc1Cl"
category = "false"


Identify the outcome logged in this assay for the compound shown: C[C@H]1O[C@@H](O[C@H]2[C@@H](O)C[C@H](O[C@H]3[C@@H](O)C[C@H](O[C@H]4CC[C@]5(C)C6C[C@@H](O)[C@]7(C)[C@@H](C8=CC(=O)OC8)CC[C@]7(O)C6CC[C@@H]5C4)O[C@@H]3C)O[C@@H]2C)C[C@H](O)[C@@H]1O (stereo partly drawn) false

Try COC1=CC(=O)C=C(OC)C1=O next. false

Try COC1=CC(C)[C@@H]2C[C@H]3OC(=O)C[C@H]4C(C)=C(OC)C(=O)C([C@@]34C)[C@@]2(C)C1=O (stereo partly drawn) next. false

Try CC(=O)N1CCCC1C(=O)O (stereo not drawn) next. false

Try O=C(Oc1ccccc1C(=O)O)c1ccccc1O next. false

Try CCCCCC(O)C1C(=O)OC(C)C(O)/C=C/C=C/C=C/C=C/C=C(\C)C(O)CC(O)CC(O)CC(O)CC(O)CC(O)CC1O (stereo not drawn) next. false

Try C[C@@H]1CCC2[C@](C)(CO)[C@@H](O)CC[C@]2(C)[C@@]12CC[C@@](CO)(CCO)O2 (stereo partly drawn) next. false

Try O=c1c(O)cc([C@H]2Oc3cc(O)cc(O)c3C[C@H]2O)cc2c([C@H]3Oc4cc(O)cc(O)c4C[C@H]3O)cc(O)c(O)c12 next. false

Try NCCCN next. false

Try COc1cc(C)c2c(=O)c3c(O)cc(O)cc3oc2c1 next. true

====

test: chemical genetic growth profiling, strain panel (AID 1159580); conditions: S. cerevisiae deletion strains, growth OD, locus YDR195W, strain ref2
Screen size: about 5,500 compounds; about 2,000 (36%) were called active. Another 18% or so got no clear call; they are omitted. Some of the results follow.
Readout name: normalized growth

[[record]]
compound = "COC1=CC(C)[C@@H]2C[C@H]3OC(=O)C[C@H]4C(C)=C(OC)C(=O)C([C@@]34C)[C@@]2(C)C1=O (some centres not stated)"
readout_name = "normalized growth"
assay_result = "0.966 (inactive)"

[[record]]
compound = "O=C(O)c1ccccc1O"
readout_name = "normalized growth"
assay_result = "0.904 (inactive)"

[[record]]
compound = "CN[C@H]1CC[C@@H](c2ccc(Cl)c(Cl)c2)c2ccccc21"
readout_name = "normalized growth"
assay_result = "1.47 [resistant] (active)"


Recorded normalized growth for C[C@@H]1CC[C@@]23CCC4(C)[C@@](C=CC5[C@@]6(C)CC[C@H](O)C(C)(C)C6CC[C@]54C)(OC2=O)C3[C@H]1C (some centres not stated) , please? 0.955 (inactive)

Try CC(C)(C)NCC(O)COc1cccc2c1CCCC2=O (configuration not stated) next. 0.966 (inactive)

Try CC1(C)C(O)CC(=O)C2(C)C1CC(O)C1(C)C2CCC2(C)C(c3ccoc3)OC(=O)C3OC321 (configuration not stated) next. 0.939 (inactive)

Try O=C(O)C1=CC(=C(c2ccc(O)c(C(=O)O)c2)c2ccc(O)c(C(=O)O)c2)C=CC1=O next. 1 (inactive)

====

test: chemical genetic growth profiling, strain panel (AID 1159580);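 also: tested at 20 µM; growth read once vehicle control cultures reached saturation at 30 °C; 1 = growth at the plate median or of vehicle wells; lower values mean less growth of the strain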; settings: S. cerevisiae deletion strains, growth OD, locus YKL068W, stronger effect = lower value
The campaign covered roughly 5,500 compounds. About 2,000 (36%) were called active. Not shown: some 18% with an inconclusive outcome. Some of the results follow.
# maps each entry to its normalized growth

Examples from the recorded data:
[[record]]
compound = "CCCCC(=O)O[C@]1(C(=O)CO)[C@@H](C)CC2C3CCC4=CC(=O)C=C[C@]4(C)[C@@]3(F)C(O)C[C@@]21C (some centres undefined)"
assay_result = "0.991 (inactive)"

[[record]]
compound = "Cc1c(C(N)=O)cc([N+](=O)[O-])cc1[N+](=O)[O-]"
assay_result = "0.982 (inactive)"

[[record]]
compound = "CCCc1nn(C)c2c(=O)[nH]c(-c3cc(S(=O)(=O)N4CCN(C)CC4)ccc3OCC)nc12"
assay_result = "0.995 (inactive)"


Here is the next item to consider.
Recorded normalized growth for NCCCN , please? 0.985 (inactive)

====

test: chemical genetic growth profiling, strain panel (AID 1159580);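 also: tested at 20 µM; growth read once vehicle control cultures reached saturation at 30 °C; 1 = growth at the plate median or of vehicle wells; lower values mean less growth of the strain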; conditions: S. cerevisiae deletion strains, growth OD, locus YLL041C, strain sdh2, stronger effect = lower value
In all, about 5,500 compounds went through this assay and about 2,000 (36%) were called active. About 18% were inconclusive and are not listed. The list shows a part of the results.
# maps each entry to its normalized growth
Respond numerically, and do not add a unit to the figure.

[[record]]
molecule = "CC12CCC(=O)C=C1CCc1ccccc12 (configuration not stated)"
assay_result = 0.973

[[record]]
molecule = "O=c1c(-c2ccc(O)cc2)coc2c(C3O[C@H](CO)[C@@H](O)[C@H](O)[C@H]3O)c(O)ccc12 (some centres not stated)"
assay_result = 0.992

[[record]]
molecule = "COC(=O)C[C@H]1C(C)(C)[C@@H](O)[C@@H]2CC3=C4CC(O)O[C@@H](c5ccoc5)[C@]4(C)CCC3[C@@]1(C)C2=O (some centres not stated)"
assay_result = 1.02


Recorded normalized growth for COc1c(O)cc2c(c1O)[C@H]1O[C@H](CO)[C@@H](O)[C@H](O)[C@@H]1OC2=O , please? 1.02

Try O=c1c2cc(O)c(O)cc2oc2cc(O)c(C3O[C@H](CO)[C@H](O)[C@@H](O)[C@H]3O)c(O)c12 (some centres not stated) next. 1.01

Try COc1ccc(-c2cc(=O)c3c(O)c(OC)c(OC)c(OC)c3o2)cc1OC next. 1

Try COc1ccc(-c2cc(=O)c3c(O)cc(O)cc3o2)cc1 next. 0.996

====

test: chemical genetic growth profiling, strain panel (AID 1159580);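 also: tested at 20 µM; growth read once vehicle control cultures reached saturation at 30 °C; 1 = growth at the plate median or of vehicle wells; lower values mean less growth of the strain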; conditions: S. cerevisiae deletion strains, growth OD, locus YMR058W, strain fet3, stronger effect = lower value
Among all 5,500 compounds or so, about 2,000 (36%) were called active. Roughly 18% stayed inconclusive and do not appear here. Some of the results follow.
# maps each entry to its normalized growth
Respond numerically, and do not add a unit to the figure.

Recorded normalized growth for C=CCSC[C@@H](N)C(=O)O , please? 0.992

Try COc1cccc2c1CCC1=CC(=O)CC[C@@]12C next. 1
